Target: huCMKLR1 (Homo sapiens)
Sequence (Q99788 whole entry): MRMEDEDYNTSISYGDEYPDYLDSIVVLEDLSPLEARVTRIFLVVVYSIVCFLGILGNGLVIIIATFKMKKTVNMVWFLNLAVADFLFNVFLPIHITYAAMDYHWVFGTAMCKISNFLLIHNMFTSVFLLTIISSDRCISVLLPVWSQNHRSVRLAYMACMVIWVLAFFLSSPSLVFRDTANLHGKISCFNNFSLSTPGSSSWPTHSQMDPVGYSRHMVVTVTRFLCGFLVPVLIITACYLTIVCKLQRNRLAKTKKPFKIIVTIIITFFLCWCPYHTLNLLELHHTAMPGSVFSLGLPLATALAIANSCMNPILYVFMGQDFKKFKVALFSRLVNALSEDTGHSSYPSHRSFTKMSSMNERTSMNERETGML
Test: β-arrestin2 (β-ARR2) enzymatic complementation assay, CMKLR1/CHO cells
Format: cell-based
Parameters: host or cells: CHO
Text: The engagement of a chemoattractant receptor by its cognate ligand stimulates the recruitment of β-arrestin to the carboxyl-terminus of the receptor, an event that results in receptor internalization and termination of G protein-mediated signaling. […] The special association of these molecules leads to enzyme activity, which is detected by a chemiluminescent substrate.
outcome-measure: IC50 (nM)
Entry rule: numbers only, all in nM.

Suppose we examine the compound C[N+](C)(C)CCC(=O)c1cccc2ccccc12.[I-] ; what IC50 value has been reported?
375

====

Biological target: CCR9 (Homo sapiens, UniProt P51686)
Sequence (P51686 whole entry): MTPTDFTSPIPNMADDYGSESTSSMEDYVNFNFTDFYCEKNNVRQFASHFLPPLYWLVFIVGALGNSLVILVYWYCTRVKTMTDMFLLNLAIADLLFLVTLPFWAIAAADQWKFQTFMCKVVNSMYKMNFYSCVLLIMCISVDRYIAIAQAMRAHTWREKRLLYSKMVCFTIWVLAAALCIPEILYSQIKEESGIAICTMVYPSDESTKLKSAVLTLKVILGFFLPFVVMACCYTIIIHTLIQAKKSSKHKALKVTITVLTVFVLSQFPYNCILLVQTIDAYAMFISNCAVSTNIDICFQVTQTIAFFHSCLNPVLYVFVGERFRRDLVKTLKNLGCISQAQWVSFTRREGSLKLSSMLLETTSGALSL
Assay: Transwell chemotaxis of CCR9+ MOLT-4 cells to CCL25
outcome-measure: IC50

Please state recorded IC50 (tested on CCR9 (Homo sapiens, UniProt P51686)) of C[N+](C)(C)CCC(=O)c1cccc2ccccc12.[I-] [α-NETA]
≥ 10 µM
